- TEST_TARGET: cdk4/cyclin D1 (Homo sapiens)
- Sequence (P11802 whole entry): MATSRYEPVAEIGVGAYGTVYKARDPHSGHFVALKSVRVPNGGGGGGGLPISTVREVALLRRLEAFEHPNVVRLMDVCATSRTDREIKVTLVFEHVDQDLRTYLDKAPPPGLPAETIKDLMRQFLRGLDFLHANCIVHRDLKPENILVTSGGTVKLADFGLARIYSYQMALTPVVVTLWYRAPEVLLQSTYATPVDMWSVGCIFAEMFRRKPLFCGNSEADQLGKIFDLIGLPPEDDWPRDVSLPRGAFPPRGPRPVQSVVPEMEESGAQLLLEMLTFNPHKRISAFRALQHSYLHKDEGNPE
- Sequence (P24385 whole entry partner): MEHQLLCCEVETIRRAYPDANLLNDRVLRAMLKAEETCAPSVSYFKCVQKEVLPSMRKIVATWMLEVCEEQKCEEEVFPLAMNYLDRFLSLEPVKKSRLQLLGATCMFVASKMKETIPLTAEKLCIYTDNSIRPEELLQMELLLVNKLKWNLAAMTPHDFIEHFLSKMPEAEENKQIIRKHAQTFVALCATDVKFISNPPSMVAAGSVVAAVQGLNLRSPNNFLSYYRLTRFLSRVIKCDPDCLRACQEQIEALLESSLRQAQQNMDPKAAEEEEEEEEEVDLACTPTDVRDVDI
- ASSAY: Cyclin-dependent kinase 4 Assay
- PARTICULARS: cdk4/cyclin D1, GST-Rb substrate, 10 μM ATP, 30 min at 37° C.; read-out: CDK4 Inhibition IC50
Structures can show the parent of a compound that is named as a salt.
ENDPOINT: IC50 (nM)

Some solved entries appear below for comparison.
COMPOUND	IC50 [nM]
N[C@H]1CC[C@H](Nc2nc(NCCCCCO)c3ncn(C4CCCC4)c3n2)CC1 [Example 25, dihydrochloride]	110
N[C@H]1CC[C@H](Nc2nc(NCc3cccc(Cl)c3)c3ncn(C4CCCC4)c3n2)CC1 [Example 29, dihydrochloride]	530
N[C@H]1CC[C@H](Nc2nc(NCCc3cccnc3)c3ncn(C4CCCC4)c3n2)CC1 [Example 7, dihydrochloride]	300
CC(C)n1cnc2c(NCc3cccc(Cl)c3)nc(N[C@H]3CC[C@H](N)CC3)nc21 [Example 15, dihydrochloride]	1500
N[C@H]1CC[C@H](Nc2nc(NCC3CCCCO3)c3ncn(C4CCCC4)c3n2)CC1 (relative stereo) [Example 30, dihydrochloride]	600
N[C@H]1CC[C@H](Nc2nc(NCC(F)(F)F)c3ncn(C4CCCC4)c3n2)CC1 [Example 49, dihydrochloride]	2200
CC(C)n1cnc2c(NCc3ccccc3)nc(N[C@H]3CC[C@H](N)CC3)nc21 [Example 45, trihydrochloride]	12000
N[C@H]1CC[C@H](Nc2nc(NCc3cccc(I)c3)c3ncn(C4CCCC4)c3n2)CC1 [Example 1, dihydrochloride]	2000

[A] N[C@H]1CC[C@H](Nc2nc(NNCC(F)(F)F)c3ncn(C4CCCC4)c3n2)CC1 [Example 52, dihydrochloride]
[B] N[C@H]1CC[C@H](Nc2nc(NCCCCc3ccccc3)c3ncn(C4CCCC4)c3n2)CC1 [Example 21, dihydrochloride]
[C] CCCCNc1nc(N[C@H]2CC[C@H](N)CC2)nc2c1ncn2C(C)C [Example 37, dihydrochloride]
[D] N[C@H]1CC[C@H](Nc2nc(NCCCn3ccnc3)c3ncn(C4CCCC4)c3n2)CC1 [Example 46, dihydrochloride]
[E] N[C@H]1CC[C@H](Nc2nc(NCCc3ccccc3)c3ncn(C4CCCC4)c3n2)CC1 [Example 43, dihydrochloride]
# input Please list the entries, largest IC50 first. Provide the ranking by listing each label in its place in the requested order.
# output C, A, B, D, E
(C: 7000 nM, A: 1800 nM, B: 1000 nM, D: 450 nM, E: 250 nM)

----------
- TEST_TARGET: cdk2/cyclin E (Homo sapiens)
- ASSAY: Cyclin-Dependent Kinase 2 Assay (cdk-2 inhibition)
- PARTICULARS: GST-Rb substrate, 30 min at 30° C.
pIC50: −log10 of the molar value. Counter-ions that a name gives are not always drawn.
ENDPOINT: pIC50

Some solved entries appear below for comparison.
COMPOUND	TEST_TARGET	RESULT_VALUE
N[C@H]1CC[C@H](Nc2nc(NCc3cccc(Cl)c3)c3ncn(C4CCCC4)c3n2)CC1 [Example 29, dihydrochloride]	cdk2/cyclin E (Homo sapiens)	7.49
CNc1nc(N[C@H]2CC[C@H](N)CC2)nc2c1ncn2C1CCCC1 [Example 28, dihydrochloride]	cdk2/cyclin E (Homo sapiens)	7.42

[a] NCCCCNc1nc(N[C@H]2CC[C@H](N)CC2)nc2c1ncn2C1CCCC1 [Example 5, dihydrochloride]
[b] N[C@H]1CC[C@H](Nc2nc(NCc3nc4ccccc4[nH]3)c3ncn(C4CCCC4)c3n2)CC1 [Example 19, dihydrochloride]
[c] NCCCCCCCCNc1nc(N[C@H]2CC[C@H](N)CC2)nc2c1ncn2C1CCCC1 [Example 56, dihydrochloride]
# input Please list the entries, largest pIC50 first. Provide the ranking by listing each label in its place in the requested order.
# output a, c, b
(a: 7.38, c: 6.94, b: 6.46)

----------
- System: HT-29
- ASSAY: In vitro tumor cell proliferation, HT-29
- Assay type: cell-based, human
- PARTICULARS: values without *; dihydrochloride; read-out: In vitro Tumor Cell Proliferation (IC50, μM) Colon HT-29 (converted)
Counter-ions that a name gives are not always drawn.
ENDPOINT: IC50 (µM)

Some solved entries appear below for comparison.
COMPOUND	TEST_TARGET	UNIT_INFO	IC50
C[C@@H](Nc1nc(NC2CCC(N)CC2)nc2c1ncn2C1CCCC1)c1ccccc1 (stereo partly shown) [Example 16, dihydrochloride]	HT-29	µM	5.1
N[C@H]1CC[C@H](Nc2nc(NCC3CCCCC3)c3ncn(C4CCCC4)c3n2)CC1 [Example 22, dihydrochloride]	HT-29	µM	12

[P] CCCCNc1nc(N[C@H]2CC[C@H](N)CC2)nc2c1ncn2C1CCCC1 [Example 3, dihydrochloride]
[Q] N[C@H]1CC[C@H](Nc2nc(NCc3ccc(F)cc3)c3ncn(C4CCCC4)c3n2)CC1 [Example 50, dihydrochloride]
[R] CC(C)n1cnc2c(NCC3CC3)nc(N[C@H]3CC[C@H](N)CC3)nc21 [Example 32, dihydrochloride]
[S] N[C@H]1CC[C@H](Nc2nc(NCc3ccc(Cl)cc3F)c3ncn(C4CCCC4)c3n2)CC1 [Example 40, dihydrochloride]
# input Sort entries by IC50 from minimum to maximum value. Provide the ranking by listing each label in its place in the requested order.
# output P, S, Q, R
(P: 1.5 µM, S: 3.2 µM, Q: 4.8 µM, R: 11 µM)

----------
- Tested on: A549
- ASSAY: In vitro tumor cell proliferation, A549
- Type: cell-based, human
- PARTICULARS: values marked * (mark not explained); dihydrochloride; read-out: In vitro Tumor Cell Proliferation (IC50, μM) Lung A549
Structures can show the parent of a compound that is named as a salt.
ENDPOINT: IC50 (µM)

Some solved entries appear below for comparison.
MOLECULE	UNIT_INFO	IC50
N[C@H]1CC[C@H](Nc2nc(NNCCO)c3ncn(C4CCCC4)c3n2)CC1 [Example 14, dihydrochloride]	µM	15
CCCCNc1nc(N[C@H]2CC[C@H](N)CC2)nc2c1ncn2C(C)C [Example 37, dihydrochloride]	µM	8.3
N[C@H]1CC[C@H](Nc2nc(NCc3ccncc3)c3ncn(C4CCCC4)c3n2)CC1 [Example 8, dihydrochloride]	µM	5.9

[1] NCCCCCCCCNc1nc(N[C@H]2CC[C@H](N)CC2)nc2c1ncn2C1CCCC1 [Example 56, dihydrochloride]
[2] CCCCCCCCNc1nc(N[C@H]2CC[C@H](N)CC2)nc2c1ncn2C1CCCC1 [Example 20, dihydrochloride]
# input Hi! Which is lower in terms of IC50, the first one 1 or the second one 2 ? # answer = label of selected item
# output 2

----------
- System: PC-3
- ASSAY: In vitro tumor cell proliferation, PC-3
- Format: cell-based, human
- PARTICULARS: values without *; dihydrochloride; read-out: In vitro Tumor Cell Proliferation (IC50, μM) Prostate PC-3
Structures can show the parent of a compound that is named as a salt.
ENDPOINT: IC50 (µM)

[P] N[C@H]1CC[C@H](Nc2nc(NCCCc3ccccc3)c3ncn(C4CCCC4)c3n2)CC1 [Example 24, dihydrochloride]
[Q] CC(C)n1cnc2c(NCC3CC3)nc(N[C@H]3CC[C@H](N)CC3)nc21 [Example 32, dihydrochloride]
# input Hi! Which is lower in terms of IC50, the first one P or the second one Q ? # answer = label of selected item
# output P
(P: 0.23 µM, Q: 6.9 µM)

[I] N[C@H]1CC[C@H](Nc2nc(NCc3ccccc3F)c3ncn(C4CCCC4)c3n2)CC1 [Example 42, dihydrochloride]
[II] N[C@H]1CC[C@H](Nc2nc(NCc3ccc(F)cc3)c3ncn(C4CCCC4)c3n2)CC1 [Example 50, dihydrochloride]
# input Hi! Which is lower in terms of IC50, the first one I or the second one II ? # answer = label of selected item
# output II
(II: 2.3 µM, I: 7.1 µM)

----------
- Test system: MDA-MB-231
- ASSAY: In vitro tumor cell proliferation, MDA-MB-231
- Type: cell-based, human
- PARTICULARS: Homo sapiens, MDA-MB-231, values without *; read-out: In vitro Tumor Cell Proliferation (IC50, μM) Breast MDA-MB-231
- Experimental: The proliferation of tumor cells was measured using a sulforhodamine B assay as described in Skehan, P., et al., J. Natl. Cancer Inst. […] Tumor cells were harvested with trypsin-EDTA, cells that excluded trypan blue were counted, added to 96-well plates and incubated overnight at 37° C. Drug was added to the wells following dilution in culture medium. […] Alternatively, the CyQUANT cell proliferation assay was used to quantify tumor cell proliferation. […]
Where a name gives a salt, the structure may show the parent alone.
ENDPOINT: IC50 (µM)

[P] N[C@H]1CC[C@H](Nc2nc(NCC3CCCCO3)c3ncn(C4CCCC4)c3n2)CC1 (relative stereo) [Example 30, dihydrochloride]
[Q] N[C@H]1CC[C@H](Nc2nc(NCc3cccc(Cl)c3)c3ncn(C4CCCC4)c3n2)CC1 [Example 29, dihydrochloride]
# input Lab note: record which item had the higher IC50, P or Q . # answer = label of selected item
# output P
(P: 6.4 µM, Q: 1.1 µM)

[a] Cc1cccc(CNc2nc(N[C@H]3CC[C@H](N)CC3)nc3c2ncn3C2CCCC2)c1 [Example 11, dihydrochloride]
[b] N[C@H]1CC[C@H](Nc2nc(NCCc3ccccc3)c3ncn(C4CCCC4)c3n2)CC1 [Example 43, dihydrochloride]
# input Hi! Which is lower in terms of IC50, the first one a or the second one b ? # answer = label of selected item
# output b
(b: 2.1 µM, a: 7.4 µM)

[1] N[C@H]1CC[C@H](Nc2nc(NCC3CCCCC3)c3ncn(C4CCCC4)c3n2)CC1 [Example 22, dihydrochloride]
[2] CC(C)n1cnc2c(NCc3ccccc3)nc(N[C@H]3CC[C@H](N)CC3)nc21 [Example 45, trihydrochloride]
[3] N[C@H]1CC[C@H](Nc2nc(NCc3ccc(Cl)c(Cl)c3)c3ncn(C4CCCC4)c3n2)CC1 [Example 10, dihydrochloride]
[4] CN1CC[C@H](c2c(O)cc(O)c3c(=O)cc(-c4ccccc4Cl)oc23)[C@H](O)C1 [Flavoipiridol, reference compound]
[5] N[C@H]1CC[C@H](Nc2nc(NCc3ccccc3F)c3ncn(C4CCCC4)c3n2)CC1 [Example 42, dihydrochloride]
# input Sort entries by IC50 from minimum to maximum value. Provide the ranking by listing each label in its place in the requested order.
# output 4, 3, 2, 1, 5
(4: 0.095 µM, 3: 1.2 µM, 2: 4 µM, 1: 8.6 µM, 5: 16 µM)

meta.source: patent US6413974B1
